B1: Transcriptional repressor p66-beta, residues 415 to 455; numbered along this chain, Q8WXI9 (parent)
chain: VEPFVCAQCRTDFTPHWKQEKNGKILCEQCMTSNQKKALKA

# Variants of: B1
# Experiment: abundance fitness (aPCA) (normalised: wild type 0, dead -1); higher = more abundant; growth selection in yeast, the domain comes from the species named
# Settings: Homo sapiens
// abundance fitness lookup, one value per entry

Mutation spec: S33D
abundance fitness: 0.002
--
Mutation spec: K36S
abundance fitness: -0.113
--
Mutation spec: F13Q
abundance fitness: -0.593
--
Mutation spec: N22C
abundance fitness: 0.289
--
Mutation spec: H16E
abundance fitness: -0.042
--
Mutation spec: C9R
abundance fitness: -0.436
--
Mutation spec: K24C
abundance fitness: -0.213
--
Mutation spec: P15Q
abundance fitness: -0.137
--
Mutation spec: T11Q
abundance fitness: 0.312
--
Mutation spec: Q35Y
abundance fitness: 0.116
--
Mutation spec: C6T
abundance fitness: 0.403
--
Mutation spec: N34Q
abundance fitness: -0.083
--
Mutation spec: Q19P
abundance fitness: 0.109
--
Mutation spec: F13W
abundance fitness: -0.213
--
Mutation spec: Q19G
abundance fitness: 0.323
--
Mutation spec: F4T
abundance fitness: -0.126
--
Mutation spec: E28S
abundance fitness: -0.006
--
Mutation spec: P15M
abundance fitness: -0.111
--
Mutation spec: T32L
abundance fitness: -0.312
--
Mutation spec: T14G
abundance fitness: -0.395
--
Mutation spec: I25Y
abundance fitness: -0.307
--
Mutation spec: K24R
abundance fitness: 0.028
--
Mutation spec: E28M
abundance fitness: -0.159
--
Mutation spec: P15V
abundance fitness: 0.015
--
Mutation spec: K37C
abundance fitness: -0.309
--
Mutation spec: I25P
abundance fitness: 0.069
--
Mutation spec: N34I
abundance fitness: -0.088
--
Mutation spec: V5A
abundance fitness: 0.116
--
Mutation spec: Q35L
abundance fitness: -0.365
--
Mutation spec: K37G
abundance fitness: -0.015
--
Mutation spec: V5R
abundance fitness: -0.027
--
Mutation spec: C9M
abundance fitness: -0.716
--
Mutation spec: C30W
abundance fitness: -1.07
--
Mutation spec: L26S
abundance fitness: -0.077
--
Mutation spec: F4N
abundance fitness: 0.34
--
Mutation spec: G23Q
abundance fitness: 0.335
--
Mutation spec: L26C
abundance fitness: -0.075
--
Mutation spec: V1G
abundance fitness: 0.024
--
Mutation spec: Q19S
abundance fitness: -0.044
--
Mutation spec: C27Y
abundance fitness: -0.444
--
Mutation spec: F4H
abundance fitness: 0.114
--
Mutation spec: F4M
abundance fitness: 0.64
--
Mutation spec: G23P
abundance fitness: -0.016
--
Mutation spec: E20Q
abundance fitness: -0.303
--
Mutation spec: K37E
abundance fitness: 0.142
--
Mutation spec: T14F
abundance fitness: -0.056
